experiment: Neurotoxicity in ip dosed Kunming mouse measured 30 mins post compound administration by rotorod test; assay type: toxicity, organism-based; conditions: in vivo
Parameter TD50 at 0.5 h: see the listing below.
The answer is to be given in mg/kg; state only the numeric part.

Example results:
Lookup: # return recorded TD50 at 0.5 h for input CCOC(=O)C1(NC(=O)NNC(=O)c2ccc(C(F)(F)F)cc2)CC1(C)C (stereo not drawn)
Found: 332

Lookup: # return recorded TD50 at 0.5 h for input CCOC(=O)C1(NC(=O)NN2C(=O)c3ccccc3C2=O)CC1(C)C (stereo not drawn)
Found: 352

--- query ---
Lookup: # return recorded TD50 at 0.5 h for input CCOC(=O)C1(NC(=O)NNC(=O)c2ccc(Cl)cc2)CC1(C)C (stereo not drawn)
Found: 382

* * *

test system: Mus musculus; assay: Anticonvulsant activity in ip dosed Kunming mouse assessed as protection against maximal electroshock-induced seizures; assay type: functional
Parameter ED50: see the listing below.
The answer is to be given in mg/kg; state only the numeric part.

Example results:
Lookup: # return recorded ED50 for input CCOC(=O)C1(NC(=O)NNC(=O)c2ccc(C(F)(F)F)cc2)CC1(C)C (stereo not given)
Found: 9.8

Lookup: # return recorded ED50 for input NC(=O)N1c2ccccc2C=Cc2ccccc21 [CARBAMAZEPINE]
Found: 8.8

Lookup: # return recorded ED50 for input CCOC(=O)C1(NC(=O)NNC(=O)c2ccc(Cl)cc2)CC1(C)C (stereo not given)
Found: 20.1

Lookup: # return recorded ED50 for input CCOC(=O)C1(NC(=O)NN2C(=O)c3ccccc3C2=O)CC1(C)C (stereo not given)
Found: 23.6

--- query ---
Lookup: # return recorded ED50 for input CCC1(c2ccccc2)C(=O)NC(=O)NC1=O [PHENOBARBITAL]
Found: 21.8

* * *

tested on: Mus musculus; experiment: Anticonvulsant activity in Kunming mouse assessed as protection against subcutaneous pentylenetetrazol-induced clonic seizures at 300 mg/kg, ip measured after 0.5 hrs; format: functional, organism-based; parameters: dose 300 mg/kg
The source made the active and inactive calls. The calls are words filed in the database; no cut-off is given here.
Output constraint: value belongs to T = active, F = inactive

Lookup: # lookup: test call for CCOC(=O)C1(NC(=O)NNC(=O)c2ccc(C)cc2)CC1(C)C (stereo not given)
Found: F

Lookup: # lookup: test call for CCOC(=O)C1(NC(=O)NNC(=O)c2ccccc2)CC1(C)C (stereo not given)
Found: T

Lookup: # lookup: test call for O=C1NC(=O)C(c2ccccc2)(c2ccccc2)N1
Found: F

Lookup: # lookup: test call for CCOC(=O)C1(NC(=O)NNC(=O)c2ccc(F)cc2)CC1(C)C (stereo not given)
Found: T

Lookup: # lookup: test call for CCOC(=O)C1(NC(=O)NNC(=O)c2ccccc2Br)CC1(C)C (stereo not given)
Found: T

Lookup: # lookup: test call for CCOC(=O)C1(NC(=O)NNC(=O)c2ccc(Br)cc2)CC1(C)C (stereo not given)
Found: F

Lookup: # lookup: test call for CCOC(=O)C1(NC(=O)NNC(=O)c2ccc([N+](=O)[O-])cc2)CC1(C)C (stereo not given)
Found: F

Lookup: # lookup: test call for CCOC(=O)C1(NC(=O)NNC(=O)c2ccccc2F)CC1(C)C (stereo not given)
Found: F

Lookup: # lookup: test call for CCOC(=O)C1(NC(=O)NNC(=O)c2ccc(C(C)(C)C)cc2)CC1(C)C (stereo not given)
Found: T

Consider now this further compound.
Lookup: # lookup: test call for CCOC(=O)C1(NC(=O)NNC(=O)c2ccc(C(F)(F)F)cc2)CC1(C)C (stereo not given)
Found: T
